# RUN_DESCRIPTION: reducers of TRPM1 reporter luminescence, concentration series – cell-based, SK-MEL-5, cherry-picked, set 3, MITF inhibitor project, dose response (AID 493073)
# ASSAY_CONDITIONS: SK-MEL-5 TRPM1 promoter luciferase, 24 h; series mostly up to 35 µM
In all, about 1,200 compounds went through this assay and about 810 (68%) were called active. So high a share suggests a set chosen from earlier hits. The list is a sample of the results. Potency and affinity values are given separately.
METRIC_NAME: outcome

| SMILES_TEXT | TEST_RESULT |
| --- | --- |
| CN(C)CCCN(C(=O)CCc1ccccc1)c1nc2ccc(Br)cc2s1 | inactive |
| O=C(Nc1ccccn1)c1ccc(Br)s1 | inactive |
| Cc1nc2cc(NC(=O)Nc3cccc([N+](=O)[O-])c3)ccc2n1C | inactive |
| O=C(c1cc2ccccc2oc1=O)N1CCN(c2ncccn2)CC1 | inactive |
| COc1cc(SC)ccc1C(=O)NCCOc1ccccc1Cl | inactive |
| CCNc1nc(N)c(C(=O)c2ccc(Cl)s2)s1 | inactive |
| C/C(=N/N=C(/C)c1cccs1)c1cccs1 | inactive |
| CCOc1ccc(C(=O)N2CCc3ccccc32)cc1 | inactive |
| CCOc1ccc(-c2nnc(-c3cccs3)o2)cc1OCC | inactive |
| C/C(=N/Nc1nc(C)c(C)s1)c1cccc([N+](=O)[O-])c1 | inactive |

Ask: Endpoint output: outcome of Cc1ccc(NC(=O)Nc2ccccc2)nc1 . Value?
Result: inactive

Ask: Reported outcome, molecule CCCCOC(=O)c1[nH]c(C)c(C(=O)OC)c1C : ____
Result: inactive
